# System tested: Recombinant GST-Tie2 (Homo sapiens, UniProt Q02763)
# Sequence (Q02763 23-1124): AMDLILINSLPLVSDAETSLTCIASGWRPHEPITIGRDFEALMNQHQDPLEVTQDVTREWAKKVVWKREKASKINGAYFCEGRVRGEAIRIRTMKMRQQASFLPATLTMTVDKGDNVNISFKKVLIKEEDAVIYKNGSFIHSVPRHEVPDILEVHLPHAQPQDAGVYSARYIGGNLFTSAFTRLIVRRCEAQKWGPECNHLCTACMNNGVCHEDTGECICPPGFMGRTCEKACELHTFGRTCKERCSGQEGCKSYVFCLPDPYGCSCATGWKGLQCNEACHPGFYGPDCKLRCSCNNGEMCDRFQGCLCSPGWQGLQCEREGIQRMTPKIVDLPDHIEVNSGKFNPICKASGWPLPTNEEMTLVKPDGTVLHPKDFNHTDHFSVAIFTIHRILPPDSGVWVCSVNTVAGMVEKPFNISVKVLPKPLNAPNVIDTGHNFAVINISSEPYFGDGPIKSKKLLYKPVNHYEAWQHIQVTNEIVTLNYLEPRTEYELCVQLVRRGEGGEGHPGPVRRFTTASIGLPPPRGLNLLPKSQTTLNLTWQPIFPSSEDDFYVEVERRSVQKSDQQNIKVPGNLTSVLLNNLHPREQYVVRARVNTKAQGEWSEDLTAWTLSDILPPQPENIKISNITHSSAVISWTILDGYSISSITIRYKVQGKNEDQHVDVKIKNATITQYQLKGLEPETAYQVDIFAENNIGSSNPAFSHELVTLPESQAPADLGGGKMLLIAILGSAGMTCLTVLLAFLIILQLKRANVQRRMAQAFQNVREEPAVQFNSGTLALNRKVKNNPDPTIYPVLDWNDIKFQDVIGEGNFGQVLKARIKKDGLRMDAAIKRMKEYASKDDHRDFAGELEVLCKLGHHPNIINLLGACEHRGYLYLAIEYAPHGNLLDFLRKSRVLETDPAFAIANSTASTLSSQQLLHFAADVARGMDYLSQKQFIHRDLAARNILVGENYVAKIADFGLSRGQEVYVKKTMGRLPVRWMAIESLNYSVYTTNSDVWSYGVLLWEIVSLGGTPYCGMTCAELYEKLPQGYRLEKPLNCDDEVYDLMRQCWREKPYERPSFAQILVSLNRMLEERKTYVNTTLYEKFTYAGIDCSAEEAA
# Assay info: Tie2 fluorescence polarization kinase activity assay (TIE2-FP)
# Assay type: biochemical
# Setup conditions: 200 μM ATP, activated enzyme; read-out: TIE2-FP pIC50 (converted)
Known IC50 of a selection of compounds

Examples from the recorded data:
>  <Smiles>
CC(C)(C)n1nc(-c2ccc(NC(=O)Nc3cc(C(F)(F)F)cc(C(F)(F)F)c3)cc2)c(C(N)=O)c1N

>  <System tested>
Recombinant GST-Tie2 (Homo sapiens, UniProt Q02763)

>  <Result>
< 0.1 µM

$$$$
>  <Smiles>
CC(C)(C)n1nc(-c2ccc(NC(=O)Nc3cccc(Cl)c3)cc2)c(C(N)=O)c1N

>  <System tested>
Recombinant GST-Tie2 (Homo sapiens, UniProt Q02763)

>  <Result>
< 0.1 µM

$$$$
>  <Smiles>
CC(C)(C)n1nc(-c2ccc(NC(=O)Nc3c(F)cccc3F)cc2)c(C(N)=O)c1N

>  <System tested>
Recombinant GST-Tie2 (Homo sapiens, UniProt Q02763)

>  <Result>
1 to 10 µM

$$$$

Proceed to the following item.
In: Check the records and state IC50 for `Cn1nc(-c2ccc(NC(=O)Nc3ccc(Oc4ccccc4)cc3)cc2)c(C(N)=O)c1N`
Out: 0.1 to 1 µM
